- TEST_DETAILS: Phase I study, pharmacokinetics following oral dosing
- Format: in vivo, human
- PARTICULARS: human, plasma, oral; 15 mg/twice daily; Table 3, n=43; read-out: T1/2 (converted)
ASSAY_READOUT: half-life
Write the numeric value and append its unit.

Prompt: Indicate its recorded half-life; the compound in question is CCS(=O)(=O)N1CCN(c2ccc(Nc3ncc(C(N)=O)c(NC4CC4)n3)cc2)CC1
Completion: 11.2 h

* * *

- TEST_DETAILS: Phase I study, pharmacokinetics following oral dosing
- Assay type: in vivo, human
- PARTICULARS: human, plasma, oral, 100 mg/day, 100 mg/day (one patient); Table 3; read-out: SS Cmax
ASSAY_READOUT: Cmax (nM)
Express your answer in nM, writing the number without its unit.

Prompt: Indicate its recorded Cmax; the molecule in question is CCS(=O)(=O)N1CCN(c2ccc(Nc3ncc(C(N)=O)c(NC4CC4)n3)cc2)CC1
Completion: 1110
